tested on: OVCAR-5 complex spheroids with HUVEC/MSC, viability, % test/control; test: Anticancer human tumor OVCAR-5 cell line growth inhibition [AhR]; details: curve of first compound; second compound 3.16 µM;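 also: spheroids exposed to compounds for 7 days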
result type: IC50

Worked cases, IC50 given:
compound: CC[C@@]1(O)C(=O)OCc2c1cc1n(c2=O)Cc2cc3c(CN(C)C)c(O)ccc3nc2-1 + CC(CO)NC(=O)c1cc(-c2ccc(Cl)cc2)nn(-c2cnn(C)c2)c1=O
IC50: > 100 nM
//
compound: Nc1ccn(C2OC(CO)C(O)C2(F)F)c(=O)n1 (centres undefined) + CC(CO)NC(=O)c1cc(-c2ccc(Cl)cc2)nn(-c2cnn(C)c2)c1=O
IC50: < 31.6 nM
//
compound: CC1(C)CCC(CN2CCN(c3ccc(C(=O)NS(=O)(=O)c4ccc(NCC5CCOCC5)c([N+](=O)[O-])c4)c(Oc4cnc5[nH]ccc5c4)c3)CC2)=C(c2ccc(Cl)cc2)C1 + Cc1ccccc1N=Nc1ccc(NC(=O)c2ccnn2C)c(C)c1
IC50: > 10000 nM

Let's switch to this compound now.
Req: Param readout= IC50; system= OVCAR-5 complex spheroids with HUVEC/MSC, viability, % test/control; entry= CC[C@@]1(O)C(=O)OCc2c1cc1n(c2=O)Cc2cc3c(CN(C)C)c(O)ccc3nc2-1 + Cc1ccccc1N=Nc1ccc(NC(=O)c2ccnn2C)c(C)c1 ; returns value.
Resp: 27.5 nM
